We begin with a simple list: items and their reported CTG EC50 (CellTiter-Glo luminescent assay, SKBR3 cells, 72 h).
- system_name: human CD71 on cells (SKBR3; SW620-rLuc-KRAS) (human, UniProt P02786 1-760)
- Sequence (P02786 whole entry): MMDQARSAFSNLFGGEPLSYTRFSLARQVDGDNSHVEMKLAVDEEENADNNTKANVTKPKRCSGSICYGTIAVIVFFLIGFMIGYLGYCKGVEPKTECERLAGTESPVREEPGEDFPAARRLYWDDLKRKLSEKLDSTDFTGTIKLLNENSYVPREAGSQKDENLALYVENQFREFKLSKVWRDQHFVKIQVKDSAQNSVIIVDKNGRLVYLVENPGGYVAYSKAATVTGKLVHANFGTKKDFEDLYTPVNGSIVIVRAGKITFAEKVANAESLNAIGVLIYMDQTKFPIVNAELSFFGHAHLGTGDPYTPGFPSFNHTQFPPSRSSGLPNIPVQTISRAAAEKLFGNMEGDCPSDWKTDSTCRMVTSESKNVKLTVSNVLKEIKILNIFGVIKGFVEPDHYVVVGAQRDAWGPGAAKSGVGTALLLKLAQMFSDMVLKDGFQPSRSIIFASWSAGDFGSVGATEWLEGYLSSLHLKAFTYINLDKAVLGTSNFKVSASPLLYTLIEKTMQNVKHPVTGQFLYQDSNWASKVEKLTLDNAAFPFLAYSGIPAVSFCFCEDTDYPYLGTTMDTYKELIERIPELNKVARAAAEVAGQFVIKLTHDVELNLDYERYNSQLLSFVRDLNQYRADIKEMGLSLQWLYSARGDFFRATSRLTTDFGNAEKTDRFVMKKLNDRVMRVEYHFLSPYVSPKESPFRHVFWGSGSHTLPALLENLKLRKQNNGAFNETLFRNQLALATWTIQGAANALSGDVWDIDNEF
- experiment_notes: cell-based or functional assay
Response body: numeric value in nM, unit text excluded.

Please review the following examples before continuing.
1. CD71-binding FN3 domain of SEQ ID NO: 370 (designed binder) MLPAPKNLVVSRVTEDSARLSWTAPDAAFDSFYIAYAEPRPDGEAIVLVVPGSERSYDLTGLKPGTEYSVLIHGVKGGLLSSPLSAHFTT = 10.9
2. CD71-binding FN3 domain of SEQ ID NO: 479 (designed binder) MLPAPKNLVVSRVTEDSARLSWTAPDAAFDSFFIGYLEPQPPGEAINLWVPGSERSYDLTGLKPGTEYNVTIQGVKGGFPSTPLFAGFTT = 30.6

// lookup CTG EC50 (CellTiter-Glo luminescent assay, SKBR3 cells, 72 h) for CD71-binding FN3 domain of SEQ ID NO: 476 (designed binder, Tencon-based FN3 domain) MLPAPKNLVVSRVTEDSARLSWTAPDAAFDSFFIGYLEPQPPGEAIHLQVPGSERSYDLTGLKPGTEYNVTIQGVKGGFPSIPLIAVFTT
2.7

Would you mind telling me what CTG EC50 (CellTiter-Glo luminescent assay, SKBR3 cells, 72 h) value was observed for CD71-binding FN3 domain of SEQ ID NO: 469 (designed binder) MLPAPKNLVVSRVTEDSARLSWTAPDAAFDSFFIGYLEPQPPGEAIHLYVPGSERSYDLTGLKPGTEYNVTIQGVKGGFPSLPLVATFTT ?
0.2
